# Method summary: chemical genetic growth profiling, strain panel (AID 1159580);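 note: tested at 20 µM; growth read once vehicle control cultures reached saturation at 30 °C; lower values mean less growth of the strain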
# Condition: S. cerevisiae deletion strains, growth OD, locus YNL307C, strain MCK1
The whole screen tested about 5,500 compounds, of which about 2,000 (36%) were called active. Inconclusive results (about 18%) are left out. Cut-off read from the data, not from the text of the source: active = normalized growth mostly below about 0.91 (no sharp cut-off); inconclusive = no clear call, values can overlap the other calls; inactive = mostly above about 0.92. The list shows a part of the results.
Mark one answer only. Choices: TRUE (active), FALSE (inactive)

Reference set (5 entries):
Compound | Assigned class
COc1cc2c(cc1OC)C1C(=O)c3c(OC)cc4c(c3OC1CO2)CCC(C)(C)O4 (stereo not drawn) | FALSE
Cc1cc(O)c(C=O)c(O)c1C(=O)O | FALSE
C=C(C)[C@@H]1[C@H]2OC(=O)[C@@H]1[C@]1(O)C[C@H]3O[C@]34C(=O)O[C@H]2[C@]14C | FALSE
COc1cc2c(cc1OC)C1C(=O)c3c(O)cc4c(c3OC1CO2)C=CC(C)(C)O4 (stereo not drawn) | FALSE
Cc1cc(O)c(C)c(O)c1C(=O)O | FALSE

For CCN(CC)CCNC(=O)c1cc(Br)c(N)cc1OC , what call appears in the results of this test?
FALSE

I would be grateful if you could indicate the recorded call for O=C1C=CC(=C(c2ccc(O)cc2)c2ccc(O)cc2)C=C1 .
FALSE

Returns: the outcome recorded for CCCCNc1cc(C(=O)O)cc(S(N)(=O)=O)c1Oc1ccccc1 in this assay.
FALSE

Hi, sorry to bother you, what did the test record for NCC1CCC(C(=O)O)CC1 (stereo not drawn) ?
FALSE

Call for entry CC1=C(C(C)O)C2=NC1C=c1[nH]c(c(C)c1C(C)O)=Cc1[nH]c(c(CCC(=O)O)c1C)C=c1[nH]c(c(C)c1CCC(=O)O)=C2 (stereo not drawn) :
FALSE

What outcome does the record of this test show for c1cncc(C2CCCCN2)c1 (stereo not drawn) ?
FALSE
